- PROCEDURE DETAILS: Baclofen solubility assays (visual method)
- Type: physicochemical
- CONDITION NOTES: 0.01 M fumaric acid aqueous solution, pH 3.88, aqueous buffer, thermodynamic from solid; in 0.01M fumaric acid aqueous medium, ambient; read-out: Solubility of baclofen
QUANTITY KIND: solubility at 24 h

solubility at 24 h in this record for NCC(CC(=O)O)c1ccc(Cl)cc1 (stereo not shown) : 6000 to 7000 µg/mL

---

- PROCEDURE DETAILS: Permeability assay on Caco-2 cells (apparent permeability)
- Assay type: in vitro ADME, human
- CONDITION NOTES: human, Caco-2, 20 μM metoprolol, positive control
QUANTITY KIND: Papp A→B at 125 min, 20 μM

Papp A→B at 125 min, 20 μM in this record for COCCc1ccc(OCC(O)CNC(C)C)cc1 (stereo not shown) : > 60 nm/s

Cited source for all entries: patent US10258692B2
